This section presents compounds with their documented CC50 values.
Assay: in vitro
Settings: human, CC50 (µM) Replicate 2
endpointName: CC50

CC(C)CN(C[C@@H](O)[C@H](Cc1ccccc1)NC(=O)O[C@H]1CCOC1)S(=O)(=O)c1ccc(N)cc1 [Amprenavir] | > 50 µM
COc1ccc2c(O[C@@H]3C[C@H]4C(=O)N[C@]5(P(=O)(O)Cc6c(F)cccc6F)C[C@H]5CCCCCCC[C@H](NC(=O)OC5CCCC5)C(=O)N4C3)cc(-c3csc(NC(C)C)n3)nc2c1Cl [GS-9256] | 24.1 µM
CCC(CC)COC(=O)[C@H](C)N[P@](=O)(OC[C@H]1O[C@@](C#N)(c2ccc3c(N)ncnn23)[C@H](O)[C@@H]1O)Oc1ccccc1 [Remdesivir] | 36.4 µM
CC(C)(C)NC(=O)[C@@H]1C[C@@H]2CCCC[C@@H]2CN1C[C@@H](O)[C@H](Cc1ccccc1)NC(=O)[C@H](CC(N)=O)NC(=O)c1ccc2ccccc2n1 [Saquinavir] | 26.8 µM
CC(C)OC(=O)[C@H](C)N[P@](=O)(OC[C@H]1O[C@@H](n2ccc(=O)[nH]c2=O)[C@](C)(F)[C@@H]1O)Oc1ccccc1 [Sofosbuvir] | > 50 µM
CCN(CC)CCCC(C)Nc1ccnc2cc(Cl)ccc12 (stereo not shown) [Chloroquine] | > 50 µM
NC(=O)c1ncn([C@@H]2O[C@H](CO)[C@@H](O)[C@H]2O)n1 [Ribavirin] | > 50 µM
NC(=O)c1nc(F)c[nH]c1=O [Favipiravir (T-705), Favipiravir] | > 50 µM
C=C1[C@H](CO)[C@@H](O)C[C@@H]1n1cnc2c(=O)[nH]c(N)nc21 [Entecavir] | > 50 µM
CC(C)CN(C[C@@H](O)[C@H](Cc1ccccc1)NC(=O)O[C@H]1CO[C@H]2OCC[C@H]21)S(=O)(=O)c1ccc(N)cc1 [Darunavir] | > 50 µM
CCOc1nc(N)nc2c1ncn2[C@@H]1O[C@@H]2COP(=O)(OC(C)C)O[C@H]2[C@@]1(C)F (stereo partly shown) [PSI-352938] | > 50 µM
Cc1c(O)cccc1C(=O)N[C@@H](CSc1ccccc1)[C@H](O)CN1C[C@H]2CCCC[C@H]2C[C@H]1C(=O)NC(C)(C)C [Nelfinavir] | 13 µM
Nc1ccn(C[C@@H](CO)OCP(=O)(O)O)c(=O)n1 [Cidofovir] | > 50 µM
CC(C)OC(=O)[C@H](C)N[P@](=O)(OC[C@H]1O[C@@](C#N)(c2ccc3c(N)ncnn23)[C@](C)(O)[C@@H]1OC(=O)C(C)C)Oc1ccccc1 [GS-6620] | > 50 µM
O=C1c2c(O)c(=O)ccn2N([C@@H]2c3ccccc3SCc3c2ccc(F)c3F)[C@@H]2COCCN12 [Baloxavir] | 47.9 µM
Cc1cc(/C=C/C#N)cc(C)c1Nc1ccnc(Nc2ccc(C#N)cc2)n1 [Rilpivirine] | 15.8 µM
N#C[C@@]1(c2ccc3c(N)ncnn23)O[C@H](CO)[C@@H](O)[C@H]1O [GS-441524] | > 50 µM
Nc1nc(=O)n([C@@H]2CS[C@H](CO)O2)cc1F [Emtricitabine (FTC), Emtricitabine] | > 50 µM
CC[C@@H]1C[C@]1(NC(=O)[C@@H]1C[C@@H](Oc2cc(-c3csc(NC(C)C)n3)nc3c(Cl)c(OCCN4CCOCC4)ccc23)CN1C(=O)[C@@H](NC(=O)O[C@@H]1C[C@@H]2C[C@@H]2C1)C(C)(C)C)C(=O)O [GS-9451] | > 50 µM
CC1=CC[C@H](C(=O)N(c2cc(C#CC(C)(C)C)sc2C(=O)O)[C@H]2CC[C@](O)(CO[C@H]3CCOC3)CC2)CC1 [Radalbuvir] | > 50 µM
COC[C@H]1C[C@@H](c2ncc(-c3ccc4c(c3)COc3cc5c(ccc6nc([C@@H]7CC[C@H](C)N7C(=O)[C@@H](NC(=O)OC)C(C)C)[nH]c65)cc3-4)[nH]2)N(C(=O)[C@H](NC(=O)OC)c2ccccc2)C1 [Velpatasvir] | > 50 µM
Fc1ccccc1-c1nc2ccn(Cc3ccc(-c4ccc(C(F)(F)F)cc4C(F)(F)F)nn3)cc-2n1 [Tegobuvir] | 15.7 µM
CC(C)(C)NC(=O)[C@@H]1CN(Cc2cccnc2)CCN1C[C@@H](O)C[C@@H](Cc1ccccc1)C(=O)N[C@H]1c2ccccc2C[C@H]1O [Indinavir] | > 50 µM
COC(=O)N[C@H](C(=O)N[C@@H](Cc1ccccc1)[C@@H](O)CN(Cc1ccc(-c2ccccn2)cc1)NC(=O)[C@@H](NC(=O)OC)C(C)(C)C)C(C)(C)C [Atazanavir] | > 50 µM
COC(=O)N[C@H](C(=O)N1CC2(CC2)C[C@H]1c1ncc(-c2ccc3c(c2)C(F)(F)c2cc(-c4ccc5nc([C@@H]6[C@H]7CC[C@H](C7)N6C(=O)[C@@H](NC(=O)OC)C(C)C)[nH]c5c4)ccc2-3)[nH]1)C(C)C [Ledapisvir] | > 50 µM

Data provenance is paper PMC7567097.
